# Assay System: protein kinases (human kinome) (Homo sapiens)
# Sequence (Q14289 whole entry): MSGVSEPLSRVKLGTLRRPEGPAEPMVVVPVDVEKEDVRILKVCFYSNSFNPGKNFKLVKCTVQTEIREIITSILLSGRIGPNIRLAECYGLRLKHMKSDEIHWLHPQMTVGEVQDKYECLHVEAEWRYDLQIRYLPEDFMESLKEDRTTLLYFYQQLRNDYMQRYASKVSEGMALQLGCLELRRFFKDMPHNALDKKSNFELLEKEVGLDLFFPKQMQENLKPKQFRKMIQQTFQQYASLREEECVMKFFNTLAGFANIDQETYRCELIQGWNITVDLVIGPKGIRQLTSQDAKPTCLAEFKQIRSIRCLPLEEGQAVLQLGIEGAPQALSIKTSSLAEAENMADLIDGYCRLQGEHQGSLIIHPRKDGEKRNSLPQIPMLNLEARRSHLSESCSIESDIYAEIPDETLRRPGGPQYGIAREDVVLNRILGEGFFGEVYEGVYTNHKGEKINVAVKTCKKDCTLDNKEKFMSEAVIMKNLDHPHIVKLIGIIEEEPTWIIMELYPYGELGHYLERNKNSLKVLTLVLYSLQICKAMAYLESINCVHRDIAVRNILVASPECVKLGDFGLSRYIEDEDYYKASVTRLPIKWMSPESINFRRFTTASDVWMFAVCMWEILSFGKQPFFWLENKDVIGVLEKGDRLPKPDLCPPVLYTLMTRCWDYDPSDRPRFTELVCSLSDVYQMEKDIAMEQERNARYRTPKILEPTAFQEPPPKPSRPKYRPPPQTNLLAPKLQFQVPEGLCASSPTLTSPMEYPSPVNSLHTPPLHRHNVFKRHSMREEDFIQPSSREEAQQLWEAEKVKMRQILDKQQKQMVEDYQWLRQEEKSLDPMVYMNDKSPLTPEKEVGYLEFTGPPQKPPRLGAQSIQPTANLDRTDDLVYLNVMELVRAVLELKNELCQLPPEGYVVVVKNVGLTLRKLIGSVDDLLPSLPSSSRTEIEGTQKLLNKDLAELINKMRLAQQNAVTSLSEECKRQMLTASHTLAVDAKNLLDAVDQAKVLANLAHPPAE
# Format: cell-based
# Condition Label: PTK2B, accession Q14289-1; experiment wp016; direction of change down
Quantity: logFC PTK2B

>  <Molecule>
CC(C)S(=O)(=O)c1ccccc1Nc1nc(Nc2ccc(N3CCN(CCOCCOCCNC(=O)CNc4cccc5c4C(=O)N(C4CCC(=O)NC4=O)C5=O)CC3)cc2)ncc1Cl (stereo not drawn) [TL12.186]

>  <Assay System>
protein kinases (human kinome) (Homo sapiens)

>  <Result Value>
−3.722

$$$$
>  <Molecule>
CC(C)S(=O)(=O)c1ccccc1Nc1nc(Nc2ccc(N3CCN(CCOCCNC(=O)CNc4ccc5c(c4)C(=O)N(C4CCC(=O)NC4=O)C5=O)CC3)cc2)ncc1Cl (stereo not drawn) [SK.3.93]

>  <Assay System>
protein kinases (human kinome) (Homo sapiens)

>  <Result Value>
−3.269

$$$$
>  <Molecule>
CC(C)S(=O)(=O)c1ccccc1Nc1nc(Nc2ccc(N3CCN(CCOCCNC(=O)CNc4cccc5c4C(=O)N(C4CCC(=O)NC4=O)C5=O)CC3)cc2)ncc1Cl (stereo not drawn) [SK.3.91]

>  <Assay System>
protein kinases (human kinome) (Homo sapiens)

>  <Result Value>
−3.824

$$$$
>  <Molecule>
CC(C)S(=O)(=O)c1ccccc1Nc1nc(Nc2ccc(N3CCN(CCOCCOCCNC(=O)CNc4ccc5c(c4)C(=O)N(C4CCC(=O)NC4=O)C5=O)CC3)cc2)ncc1Cl (stereo not drawn) [LT2.49]

>  <Assay System>
protein kinases (human kinome) (Homo sapiens)

>  <Result Value>
−3.365

$$$$
>  <Molecule>
CC(C)S(=O)(=O)c1ccccc1Nc1nc(Nc2ccc(N3CCN(CCOCCOCCOCCNC(=O)CNc4cccc5c4C(=O)N(C4CCC(=O)NC4=O)C5=O)CC3)cc2)ncc1Cl (stereo not drawn) [SK.3.87]

>  <Assay System>
protein kinases (human kinome) (Homo sapiens)

>  <Result Value>
−3.217

$$$$
>  <Molecule>
CC(C)S(=O)(=O)c1ccccc1Nc1nc(Nc2ccc(N3CCN(CCOCCOCCOCCNC(=O)CNc4ccc5c(c4)C(=O)N(C4CCC(=O)NC4=O)C5=O)CC3)cc2)ncc1Cl (stereo not drawn) [SK.3.89]

>  <Assay System>
protein kinases (human kinome) (Homo sapiens)

>  <Result Value>
−3.554

$$$$
